target: β-lactamase Ps. aerug. (Pseudomonas aeruginosa, UniProt P24735); assay: β-lactamase inhibition, Ps. aerug. enzyme; assay type: biochemical; conditions: read-out: % Inhibition of - lactamases at 40 μg/ml, Ps. aerug.
Sequence (P24735 27-397): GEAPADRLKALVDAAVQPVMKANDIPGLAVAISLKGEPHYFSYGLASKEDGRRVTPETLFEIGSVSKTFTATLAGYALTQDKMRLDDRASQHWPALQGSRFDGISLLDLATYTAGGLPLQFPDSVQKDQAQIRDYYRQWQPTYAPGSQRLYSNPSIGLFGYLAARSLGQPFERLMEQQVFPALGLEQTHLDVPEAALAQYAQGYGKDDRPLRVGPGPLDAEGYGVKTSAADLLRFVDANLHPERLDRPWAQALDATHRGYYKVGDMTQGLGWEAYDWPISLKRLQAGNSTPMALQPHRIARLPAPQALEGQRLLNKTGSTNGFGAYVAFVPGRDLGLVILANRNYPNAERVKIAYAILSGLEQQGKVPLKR
Listed here: items and their measured inhibition at 40 µg/mL.
reportedMetric: inhibition at 40 µg/mL (%)

1) COC(=O)[C@H]1[C@H](CCOS(=O)(=O)c2ccc(C)cc2)O[C@@H]2CC(=O)N21 (relative stereo) ... 11
2) O=C(O)[C@H]1CO[C@@H]2CC(=O)N12 (relative stereo) ... 14
3) O=C(OCc1ccccc1)[C@@H]1O[C@@H]2CC(=O)N2[C@H]1C(=O)OCc1ccccc1 ... 9
4) COC(=O)[C@H]1[C@H](CBr)O[C@@H]2CC(=O)N21 (relative stereo) ... 8
5) COC(=O)[C@H]1[C@H](CCO)O[C@@H]2CC(=O)N21 (relative stereo) ... 10
